- Tested on: SF-268 CNS
- Test Details: NCI tumour cell line growth inhibition, 384-well format
Observed Property: TGI (µM)
Please respond with the number in µM and leave the unit unwritten.

// lookup TGI | system=SF-268 CNS | key= CC(C)[C@]12O[C@H]1[C@@H]1O[C@]13[C@]1(O[C@H]1C[C@H]1C4=C(CC[C@@]13C)C(=O)OC4)[C@@H]2O
0.0277

What measured TGI is associated with C[C@@H]1COCCN1c1cc(C2([S@](C)(=N)=O)CC2)nc(-c2ccnc3[nH]ccc23)n1 on SF-268 CNS?
46.3

What TGI appears in the records for this compound with SF-268 CNS? CCN1CCN(Cc2ccc(-c3cc4c(N[C@H](C)c5ccccc5)ncnc4[nH]3)cc2)CC1
3.35
